- targetOrTestSystem: human CPT1a (Homo sapiens)
- Sequence (P50416 2-773): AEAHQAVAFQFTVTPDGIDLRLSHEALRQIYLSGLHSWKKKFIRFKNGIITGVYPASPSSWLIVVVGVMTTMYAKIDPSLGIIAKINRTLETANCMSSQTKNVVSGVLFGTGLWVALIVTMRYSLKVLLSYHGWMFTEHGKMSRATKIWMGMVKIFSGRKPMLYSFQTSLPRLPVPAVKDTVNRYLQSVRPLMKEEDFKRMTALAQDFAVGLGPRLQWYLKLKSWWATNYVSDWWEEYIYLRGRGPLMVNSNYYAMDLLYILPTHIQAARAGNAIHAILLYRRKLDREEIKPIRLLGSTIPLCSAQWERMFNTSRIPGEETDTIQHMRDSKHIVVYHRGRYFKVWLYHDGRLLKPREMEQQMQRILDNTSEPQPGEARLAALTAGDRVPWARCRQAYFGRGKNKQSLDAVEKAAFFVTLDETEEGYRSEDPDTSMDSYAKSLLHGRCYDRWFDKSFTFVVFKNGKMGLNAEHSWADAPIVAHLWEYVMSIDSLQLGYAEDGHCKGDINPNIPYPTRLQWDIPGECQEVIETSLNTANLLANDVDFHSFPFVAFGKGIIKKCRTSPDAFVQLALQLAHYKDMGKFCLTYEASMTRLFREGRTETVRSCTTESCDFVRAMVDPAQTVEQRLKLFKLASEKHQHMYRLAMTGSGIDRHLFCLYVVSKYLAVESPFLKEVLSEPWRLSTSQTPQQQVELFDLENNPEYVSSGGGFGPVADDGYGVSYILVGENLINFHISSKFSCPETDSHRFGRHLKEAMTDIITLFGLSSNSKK
- protocolNotes: DTNB colorimetric CoA release assay, […] nm, transfected Expi293 pellet extract
- Type: cell-based
quantityName: pIC50
Scale: negative log10 of molar concentration, which is what pIC50 denotes.

Let me check: C1CCC(C(CC2CCCCN2)C2CCCCC2)CC1 (stereo not shown) [perhexiline] , system human CPT1a (Homo sapiens), measured pIC50 is 3.50
